Values of IC50 for Acyl-CoA: Cholesterol Acyltransferase (ACAT) (Rattus norvegicus, UniProt Q7TQM4), collected from a number of published sources:

Lookup: For Acyl-CoA: Cholesterol Acyltransferase (ACAT) (Rattus norvegicus, UniProt Q7TQM4), provide IC50 of CC(=O)O[C@H]1CC[C@]2(C)[C@H]3Cc4c(cc(-c5ccc[n+]([O-])c5)oc4=O)O[C@]3(C)CC[C@H]2C1(C)C please.
Found: 110000 to 120000 nM

Lookup: For Acyl-CoA: Cholesterol Acyltransferase (ACAT) (Rattus norvegicus, UniProt Q7TQM4), provide IC50 of CCCCCCN(CCCC(=O)Nc1c(SC)nc(C)nc1N(CCC)CCC)c1ccccc1 please.
Found: 16 nM

Lookup: For Acyl-CoA: Cholesterol Acyltransferase (ACAT) (Rattus norvegicus, UniProt Q7TQM4), provide IC50 of CC(C)c1cc(C(C)C)c(CC(=O)NS(=O)(=O)Oc2c(C(C)C)cc(C=O)cc2C(C)C)c(C(C)C)c1 please.
Found: 43200 nM

Lookup: For Acyl-CoA: Cholesterol Acyltransferase (ACAT) (Rattus norvegicus, UniProt Q7TQM4), provide IC50 of CCCCCCN(CCCC(=O)Nc1c(SC)nc(C)nc1N(CC)CC)c1ccc(OC)cc1 please.
Found: 120 nM

Lookup: For Acyl-CoA: Cholesterol Acyltransferase (ACAT) (Rattus norvegicus, UniProt Q7TQM4), provide IC50 of CSc1cc(C)nc(SC)c1NC(=O)C1CC(C)=C(C)CS1 (centres unmarked) please.
Found: < 2000 nM

Lookup: For Acyl-CoA: Cholesterol Acyltransferase (ACAT) (Rattus norvegicus, UniProt Q7TQM4), provide IC50 of COc1ccc(C(Sc2ccc(F)cc2)C(=O)Nc2c(SC)cc(C)nc2SC)cc1 (centres unmarked) please.
Found: < 1000 nM

Lookup: For Acyl-CoA: Cholesterol Acyltransferase (ACAT) (Rattus norvegicus, UniProt Q7TQM4), provide IC50 of COc1ccc(C(SCc2ccc(Cl)cc2)C(=O)Nc2c(SC)cc(C)nc2SC)cc1 (centres unmarked) please.
Found: < 1000 nM

Lookup: For Acyl-CoA: Cholesterol Acyltransferase (ACAT) (Rattus norvegicus, UniProt Q7TQM4), provide IC50 of COc1cc(OC)c(OC(=O)CS(=O)(=O)Nc2c(C(C)C)cccc2C(C)C)c(OC)c1 please.
Found: > 1000 nM

====

Values of pIC50 for Acyl-CoA: Cholesterol Acyltransferase (ACAT) (Rattus norvegicus, UniProt Q7TQM4), collected from a number of published sources:
Give only the number. pIC50 is defined as minus log10 of concentration in molar units.

Lookup: For Acyl-CoA: Cholesterol Acyltransferase (ACAT) (Rattus norvegicus, UniProt Q7TQM4), provide pIC50 of CCCCCCN(CCCC(=O)Nc1c(SC)nc(SC)nc1N(CC)CC)c1ccccc1 please.
Found: 7.60

Lookup: For Acyl-CoA: Cholesterol Acyltransferase (ACAT) (Rattus norvegicus, UniProt Q7TQM4), provide pIC50 of CCCCCCCC/C=C\CCCCCCCC(=O)NC(CN1CCC(=O)CC1)c1ccccc1 (centres unmarked) please.
Found: 6.74

Lookup: For Acyl-CoA: Cholesterol Acyltransferase (ACAT) (Rattus norvegicus, UniProt Q7TQM4), provide pIC50 of CCCCCCCCCCCCSC(=O)CS(=O)(=O)Nc1c(OC)cc(OC)cc1OC please.
Found: 6.24
